SYSTEM: T1, TRCW5 antigen (CD3δε-Fc-Avi) (biotinylated (site not stated))
T1 construct: also called recombinant CD3
T1 sequence (chain, as listed by the source mutant limits assumed): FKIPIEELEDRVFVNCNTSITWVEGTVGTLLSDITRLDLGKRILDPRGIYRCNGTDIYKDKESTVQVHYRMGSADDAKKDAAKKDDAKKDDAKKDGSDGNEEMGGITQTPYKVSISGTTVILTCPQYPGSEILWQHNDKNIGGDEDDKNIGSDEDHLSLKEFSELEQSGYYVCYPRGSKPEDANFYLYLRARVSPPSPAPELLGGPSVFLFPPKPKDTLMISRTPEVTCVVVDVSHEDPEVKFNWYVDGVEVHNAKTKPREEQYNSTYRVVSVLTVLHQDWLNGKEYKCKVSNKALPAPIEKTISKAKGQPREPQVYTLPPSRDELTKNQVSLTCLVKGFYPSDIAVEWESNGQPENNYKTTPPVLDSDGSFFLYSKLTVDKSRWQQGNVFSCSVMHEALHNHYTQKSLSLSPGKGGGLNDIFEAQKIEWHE
ASSAY NOTES: ELISA after heat
Provide the recorded % Retained 60° C. for the entries that follow.
Answers are plain numbers, in %.

BINDER	% Retained 60° C. / %
CD3B2026 (scFv) scFv: QVQLVQSGAEVKKPGSSVKVSCKASGYTFTRSTMHWVKQAPGQGLEWIGYINPSSAYTNYNQKFQGRVTLTADKSTSTAYMELSSLRSEDTAVYYCASPQVHYDYNGFPYWGQGTLVTVSSGGSEGKSSGSGSESKSTGGSEIVLTQSPATLSASPGERVTLSCSASSSVSYMNWYQQKPGTAPRRWIYDSSKLASGVPARFSGSGSGRDYTLTISSLEPEDFAVYYCQQWSRNPPTFGGGTKVEIK	98

Here's the next entry for you.
Name the reported % Retained 60° C. value associated with the binder CD3B2073 (scFv) scFv: QVQLVQSGAEVKKPGSSVKVSCKASGYTFTRSTMHWVRQAPGQGLEWMGYINPSSAYTNYNQKFQGRVTLTADKSTSTAYMELSSLRSEDTAVYYCASPQVHYDYNGFPYWGQGTLVTVSSGGSEGKSSGSGSESKSTGGSEIVLTQSPATLSASPGERVTLSCSASSSVSYMNWYQQKPGQAPRRWIYDSSKLASGVPARFSGSGSGRDYTLTISSLEPEDFAVYYCQQWSRNPPTFGGGTKVEIK 110
